Assay read-out pIC50 on L-selectin (Homo sapiens, UniProt P14151); records merged from the literature.
pIC50: −log10 of the molar value.
resultType: pIC50

O=C(O)Cc1ccc(-c2ccccc2NC(=O)c2cccc(-c3ccc(O)cc3O)c2)s1: 3.80
COc1ccc(-c2cccc(C(=O)Nc3ccccc3-c3ccc(C(=O)O)s3)c2)c(OC)c1: 3.82
CCOC(=O)c1c(NC(=O)c2ccc(S(=O)(=O)N3CCCCCC3)cc2)sc2c1CC(C)(C)NC2(C)C: 4.96
COC(=O)Cc1ccc(-c2ccccc2NC(=O)c2cccc(-c3ccc(O)cc3O)c2)s1: 4.21
CCN1CCc2c(sc(NC(=O)c3ccc(S(=O)(=O)N(C)c4ccccc4)cc3)c2C(=O)NC)C1: 5.05
COc1ccc(-c2cccc(C(=O)Nc3ccccc3-c3ccc(CC(=O)O)s3)c2)c(OC)c1: 3.82
CC(C)N1CCc2c(sc(NC(=O)c3ccc(S(=O)(=O)N4CCc5ccccc5C4)cc3)c2C(N)=O)C1: 4.89
COc1cc(OC)cc(-c2cccc(C(=O)Nc3ccccc3-c3ccc(CC(=O)O)s3)c2)c1: 3.88
COc1cc(OC)cc(-c2cccc(C(=O)Nc3ccccc3-c3ccc(C(=O)O)s3)c2)c1: 3.84
Cc1oc(-c2ccc(NC(=O)c3cncc(-c4ccc(O)cc4O)c3)cc2)cc1C(=O)O: 3.56
CCOC(=O)c1c(NC(=O)c2ccc(S(=O)(=O)N3CCCc4ccccc43)cc2)sc2c1CCN(C(C)C)C2: 4.96
CN(C1CCCCC1)S(=O)(=O)c1ccc(C(=O)Nc2sc3c(c2C(N)=O)CC(C)(C)NC3(C)C)cc1: 4.44
O=C(O)Cc1cccc(-c2cc(C(=O)CCCCC(=O)c3ccc(O[C@H]4O[C@H](CO)[C@@H](O)[C@H](O)[C@@H]4O)c(-c4cccc(CC(=O)O)c4)c3)ccc2O[C@H]2O[C@H](CO)[C@@H](O)[C@H](O)[C@@H]2O)c1: 2.52
CCN(CC)S(=O)(=O)c1ccc(C(=O)Nc2sc3c(c2-c2nc4ccccc4s2)CCN(C(C)C)C3)cc1: 5.00
O=C(O)Cc1ccc(-c2ccccc2NC(=O)c2cncc(-c3ccc(O)cc3O)c2)s1: 3.30
O=C(O)Cc1cccc(-c2cc(Cc3cccc(Cc4ccc(O[C@H]5O[C@H](CO)[C@@H](O)[C@H](O)[C@@H]5O)c(-c5cccc(CC(=O)O)c5)c4)c3)ccc2O[C@H]2O[C@H](CO)[C@@H](O)[C@H](O)[C@@H]2O)c1: 2.52
O=C(O)Cc1ccc(-c2cccc(NC(=O)c3cccc(-c4ccc(O)cc4O)c3)c2)s1: 4.41
CCN1CCc2c(sc(NC(=O)c3ccc(S(=O)(=O)N(CC)CC)cc3)c2-c2nc3ccccc3s2)C1: 6.46
